# target.entity: wild-type Fyn (Homo sapiens)
# Sequence (P06241 whole entry, species assumed): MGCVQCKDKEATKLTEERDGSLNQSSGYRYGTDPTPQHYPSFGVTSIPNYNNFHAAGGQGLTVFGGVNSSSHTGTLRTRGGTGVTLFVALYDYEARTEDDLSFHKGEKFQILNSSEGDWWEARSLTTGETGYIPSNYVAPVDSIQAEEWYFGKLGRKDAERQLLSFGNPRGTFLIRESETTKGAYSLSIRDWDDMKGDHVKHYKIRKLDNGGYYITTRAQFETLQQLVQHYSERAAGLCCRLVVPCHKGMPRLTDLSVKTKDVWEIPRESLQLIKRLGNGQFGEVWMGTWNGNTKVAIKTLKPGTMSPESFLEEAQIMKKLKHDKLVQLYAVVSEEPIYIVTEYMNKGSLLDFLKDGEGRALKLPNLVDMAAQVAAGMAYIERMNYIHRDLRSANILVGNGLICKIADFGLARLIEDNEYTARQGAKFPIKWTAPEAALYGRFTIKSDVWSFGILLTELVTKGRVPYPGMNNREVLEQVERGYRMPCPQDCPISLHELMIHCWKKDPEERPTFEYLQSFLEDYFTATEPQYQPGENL
pIC50: −log10 of the molar value.
quantity.name: pIC50

Ask | Param readout = pIC50; param system = wild-type Fyn (Homo sapiens); param query = "CC(C)(C)n1nc(-c2ccccc2)c2c(NC(=O)C3CCCC3)ncnc21" ; response: value
Reply | < 3.40

====

# target.entity: WT Fyn (Homo sapiens)
# Construct: GST; made in house; host or cells: E. coli DH5α (pGEX-KT)
# Sequence (P06241 1-534 isoform P06241-2): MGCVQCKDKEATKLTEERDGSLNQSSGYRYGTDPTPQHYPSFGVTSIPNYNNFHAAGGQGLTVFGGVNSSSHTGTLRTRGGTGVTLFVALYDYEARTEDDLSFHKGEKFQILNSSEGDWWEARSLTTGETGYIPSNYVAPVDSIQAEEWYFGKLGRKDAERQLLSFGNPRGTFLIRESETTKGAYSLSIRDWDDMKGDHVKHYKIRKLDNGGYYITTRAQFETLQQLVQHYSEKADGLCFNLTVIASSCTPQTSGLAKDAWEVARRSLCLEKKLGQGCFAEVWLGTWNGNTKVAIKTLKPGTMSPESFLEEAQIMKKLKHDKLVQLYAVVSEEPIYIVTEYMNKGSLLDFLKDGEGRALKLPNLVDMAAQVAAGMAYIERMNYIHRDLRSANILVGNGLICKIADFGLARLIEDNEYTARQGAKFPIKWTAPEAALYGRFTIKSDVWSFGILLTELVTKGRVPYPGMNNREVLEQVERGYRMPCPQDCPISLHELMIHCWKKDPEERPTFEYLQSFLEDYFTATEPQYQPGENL
# method: In vitro kinase inhibition assay
# Format: biochemical
quantity.name: inhibition of WT Fyn (in words)

CC(C)(C)n1nc(-c2ccccc2)c2c(NCC3CCCC3)ncnc21 [Analog 4b]; sufficiently orthogonal
CC(C)(C)n1nc(-c2ccccc2)c2c(NCc3ccco3)ncnc21 [Analog 4d]; sufficiently orthogonal
CC(C)(C)n1nc(-c2ccccc2)c2c(NCc3ccccc3)ncnc21 [Analog 4e]; sufficiently orthogonal

====

# Test system: I338G v-Src transformed NIH3T3 cells
# method: Inhibition of v-Src in NIH3T3 fibroblasts (phosphotyrosine blot)
# Format: cell-based
# measurement.parameters: Mus musculus, NIH3T3, read-out: IC50 for p36 phosphotyrosine signal
quantity.name: IC50 (µM)
Numeric only. Scale: µM

Ask | Reported IC50, compound "CC(C)(C)c1ccc(C(=O)Nc2ncnc3c2c(-c2ccccc2)nn3C(C)(C)C)cc1" : ____
Reply | 50

====

# target.entity: I338G v-Src (Rous sarcoma virus subgroup A, UniProt P00524, DEL77-225/I338G)
# method: biochemical
quantity.name: pIC50
Expect pIC50 as a plain number equal to -log10 of the molar concentration.

Ask | Value lookup for pIC50; key = CC(C)(C)c1ccc(C(=O)Nc2ncnc3c2c(-c2ccccc2)nn3C(C)(C)C)cc1 [Analog 3g]
Reply | 6.37

====

# target.entity: I338G v-Src (Rous sarcoma virus subgroup A, UniProt P00524, DEL77-225/I338G)
# method: biochemical
quantity.name: Ki

Ask | So what Ki did "CC(C)(C)c1ccc(C(=O)Nc2ncnc3c2c(-c2ccccc2)nn3C(C)(C)C)cc1" get with I338G v-Src (Rous sarcoma virus subgroup A, UniProt P00524, DEL77-225/I338G)?
Reply | ~0.4 µM

Origin of values: patent US7049116B2
